- run_description: self-splicing fitness, log relative to wild type (ln ratio); higher = more splicing; Tetrahymena group I intron in knt gene, E. coli kanamycin selection, DiMSum; sequences stand for … in CUCUCU…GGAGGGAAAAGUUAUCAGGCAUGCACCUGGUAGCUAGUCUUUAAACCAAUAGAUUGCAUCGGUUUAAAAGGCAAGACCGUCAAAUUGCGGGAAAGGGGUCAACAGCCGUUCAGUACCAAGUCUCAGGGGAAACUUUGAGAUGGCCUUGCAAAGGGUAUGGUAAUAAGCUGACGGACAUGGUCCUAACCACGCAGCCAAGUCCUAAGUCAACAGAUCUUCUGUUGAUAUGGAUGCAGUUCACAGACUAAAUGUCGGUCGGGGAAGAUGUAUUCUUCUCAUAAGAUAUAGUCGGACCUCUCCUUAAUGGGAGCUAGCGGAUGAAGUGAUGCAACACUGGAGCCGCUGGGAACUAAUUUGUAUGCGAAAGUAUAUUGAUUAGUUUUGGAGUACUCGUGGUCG;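 further: selection with 25 µg/mL kanamycin versus none on LB agar overnight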
- conditions_used: 30 °C
Please mark satisfied if the recorded self-splicing fitness (ln) is equal to or greater than -2, and not satisfied if it falls below.

Reference set (5 entries):
[
  {
    "residue_sequence": "GGCAAGCAAUAUUACGUGGG",
    "class_assignment": "not satisfied"
  },
  {
    "residue_sequence": "CCAGAGCAAUAUUACGCGCG",
    "class_assignment": "satisfied"
  },
  {
    "residue_sequence": "UUGCAGCAAUAUUACGAGGA",
    "class_assignment": "not satisfied"
  },
  {
    "residue_sequence": "ACGCAGCAAUAUUACGCGGA",
    "class_assignment": "not satisfied"
  },
  {
    "residue_sequence": "CCGUAGCAAUAUUACGAUCA",
    "class_assignment": "not satisfied"
  }
]

Query: Evaluate `ACUCAGCAAUAUUACGUGCC` : self-splicing fitness (ln) at minimum -2?
Response: satisfied

Query: Evaluate `ACGAAGCAAUAUUACGUAUU` : self-splicing fitness (ln) at minimum -2?
Response: not satisfied

Query: Evaluate `AACCAGCAAUAUUACGCCUG` : self-splicing fitness (ln) at minimum -2?
Response: satisfied

Query: Evaluate `UUCCAGCAAUAUUACGUCUC` : self-splicing fitness (ln) at minimum -2?
Response: not satisfied

Query: Evaluate `GGGCAGCAAUAUUACGUGGG` : self-splicing fitness (ln) at minimum -2?
Response: not satisfied

Query: Evaluate `AGAAAGCAAUAUUACGUAUA` : self-splicing fitness (ln) at minimum -2?
Response: not satisfied

Query: Evaluate `CACGAGCAAUAUUACGGUAG` : self-splicing fitness (ln) at minimum -2?
Response: not satisfied

Query: Evaluate `CUCCAGCAAUAUUACGGCUC` : self-splicing fitness (ln) at minimum -2?
Response: not satisfied

Query: Evaluate `UAUUAGCAAUAUUACGUGUG` : self-splicing fitness (ln) at minimum -2?
Response: satisfied

Query: Evaluate `UAGGAGCAAUAUUACGCCAA` : self-splicing fitness (ln) at minimum -2?
Response: not satisfied
